The reported numbers originate from ChEMBL document CHEMBL1201862.

system: HT-29; experiment: NCI tumour cell line growth inhibition, 48 h
Active and inactive are the calls of the source. Cut-off read from the data, not from the text of the source: active = GI50 up to about 1.1 µM and inactive = higher.
Parameter GI50: see the listing below.

Record excerpt, results attached:
• COc1ccc2nc(/C(N)=C\C#N)ccc2c1 = 47.6 µM (inactive)
• CCOC(=O)[C@@]12CCC(C1=O)[C@](C)(O)C[C@@H]2c1ccccc1 = 29.2 µM (inactive)
• CC(=O)O[C@H]1CN(S(=O)(=O)c2ccc(C)cc2)C[C@@H]1C1CCCCC1 = 24.4 µM (inactive)
• CC(NC(=O)c1ccc(NP(=O)(OCc2ccc([N+](=O)[O-])o2)N(C)CCCCCl)cc1)c1ccc(OCC2CCCCC2)c(C(N)=O)c1 (stereo unspecified) = 18.3 µM (inactive)
• COc1ccc(CCCNC(=O)Cc2ccccc2CO)cc1OC = > 100 µM (inactive)
• CC1OC(n2cc(F)c(=O)[nH]c2=O)C=CC1O (stereo unspecified) = > 100 µM (inactive)

Prompt: Report GI50, nothing else, for this compound: C=C(C)CCC1CC=[N+]([O-])OC1C(C)(C)C (stereo unspecified)
Completion: 44.5 µM (inactive)

Prompt: Report GI50, nothing else, for this compound: `O=C1c2c(O)cccc2C(C(=O)CCCCC(=O)C2c3cccc(O)c3C(=O)c3c(O)cccc32)c2cccc(O)c21`
Completion: 0.641 µM (active)

Prompt: Report GI50, nothing else, for this compound: `Cc1nc(-c2cccnc2)sc1C(=O)/C=C/c1cccc([N+](=O)[O-])c1`
Completion: > 100 µM (inactive)

Prompt: Report GI50, nothing else, for this compound: `CC1=C(C(=O)Nc2ccccc2C)C(c2ccccc2C)C(C(=O)Nc2ccccc2C)=C(C)N1`
Completion: 20.3 µM (inactive)

Prompt: Report GI50, nothing else, for this compound: N#CN1CC[C@@H]2CC3(CCC2C1)OCCO3 (stereo partly specified)
Completion: > 100 µM (inactive)

Prompt: Report GI50, nothing else, for this compound: `CN(NC(=O)CCCl)C1=NCCN1`
Completion: > 100 µM (inactive)

Prompt: Report GI50, nothing else, for this compound: `Cc1cccc(/N=N/c2ccc(O)c(CN(C)C)c2)c1`
Completion: 17.5 µM (inactive)

Prompt: Report GI50, nothing else, for this compound: `O=C1Nc2cccc(C(F)(F)F)c2/C1=N/Nc1ccccc1[N+](=O)[O-]`
Completion: 36.4 µM (inactive)

Prompt: Report GI50, nothing else, for this compound: `O=C(CC(=O)c1ccc([N+](=O)[O-])cc1)C(=O)Nc1nccs1`
Completion: > 100 µM (inactive)

Prompt: Report GI50, nothing else, for this compound: `COC(=O)[C@@H]1C[C@]2(CC=C(C)C)c3ccccc3N(S(=O)(=O)c3ccccc3)[C@@H]2N1C(=O)OC`
Completion: 23.5 µM (inactive)

* * *

system: CAKI-1; test: NCI tumour cell line growth inhibition, 48 h
The source made the active and inactive calls. No stated cut-off is given here; in the data, active = GI50 up to about 1.1 µM and inactive = higher.
Parameter GI50: see the listing below.

Record excerpt, results attached:
• Cc1ccc(/N=N/c2c(C)nn(C(=O)CC(=O)Nc3ccccc3)c2C)cc1C = > 100 µM (inactive)
• Cn1nc2ccc3nccc(NCCNCCCl)c3c2n1 = > 10 µM (inactive)
• Cc1c(-c2nc(N)c(C#N)c(N)c2C#N)c(=O)oc2ccccc12 = > 100 µM (inactive)

In the following, a different compound is considered.
Prompt: Report GI50, nothing else, for this compound: CC12CC(=O)NN=C1c1ccccc1C2 (centres undefined)
Completion: > 100 µM (inactive)

* * *

Parameter GI50: see the listing below.
tested on: IGROV-1; assay: NCI tumour cell line growth inhibition, 48 h
The source made the active and inactive calls. Rule as the data show it: active = GI50 up to about 1.1 µM and inactive = higher.

Record excerpt, results attached:
* O=C1Nc2cc(Cl)ccc2C(=O)N2CCC[C@@H]12 | > 100 µM (inactive)
* COC(=O)/C=C(\S/C(=C(/c1ccccc1)n1cc(C(=O)OC)c(C(=O)OC)n1)c1ccccc1)C(=O)OC | 17.7 µM (inactive)
* Clc1ccc(C2=Cc3nc2c(-c2ccccc2)c2ccc([nH]2)c(-c2ccccc2)c2nc(c(-c4ccccc4)c4ccc([nH]4)c3-c3ccccc3)C=C2)cc1 | > 62.5 µM (inactive)
* CCOC(=O)n1c2ccccc2c2c(O)c(OC)c3c(c21)C(=O)NC3=O | 14.7 µM (inactive)
* COc1ccc(NC(C)=O)cc1N1C(=O)/C(=C\c2cccc(Oc3ccccc3)c2)SC1c1ccccc1 (centres undefined) | 27.4 µM (inactive)
* CN(Cc1cnc2c(N)nc(N)nc2n1)c1ccc(Cl)cc1 | 13.7 µM (inactive)
* BrC/C=C/C[P+](c1ccccc1)(c1ccccc1)c1ccccc1 | 55.5 µM (inactive)
* Cc1cc(S(=O)(=O)N2CCNNC2=O)c(S)cc1Cl | 87.9 µM (inactive)

In the following, a different compound is considered.
Prompt: Report GI50, nothing else, for this compound: `CCCC/C(C)=N/NC(N)=S`
Completion: > 100 µM (inactive)

* * *

test system: 786-0; assay: NCI tumour cell line growth inhibition, 48 h
Activity calls are given as the source filed them. Rule as the data show it: active = GI50 up to about 1.1 µM and inactive = higher.
Returns: one label drawn from active, inactive

Previously resolved entries follow.
• COc1cc(C2c3cc4c(cc3OC(NCc3ccccc3)C2C)OCO4)cc(OC)c1OC (stereo not drawn) = active
• O=C1CCCN1C(=O)CS(=O)(=O)c1ccccc1 = inactive

Prompt: Call for entry `N#CCc1nc(-c2cc3ccccc3oc2=O)cs1` :
Completion: inactive

* * *

tested on: UO-31; experiment: NCI tumour cell line growth inhibition, 48 h
The source made the active and inactive calls. Rule as the data show it: active = GI50 up to about 1.1 µM and inactive = higher.
Returns: one label drawn from active, inactive

- N=C(N)NS(=O)(=O)c1ccc(NC(=O)c2ccc3nc4ccccc4c(Nc4ccc(S(=O)(=O)N=C(N)N)cc4)c3c2)cc1: inactive
- CN(NC(=O)CCCl)C1=NCCN1: inactive

Prompt: Call for entry `O=C(Nc1cc2c(=O)oc3ccccc3c2oc1=O)c1cccnc1` :
Completion: inactive

Prompt: Call for entry C[N+]1(C)C[C@@H](O)C[C@@H]1C(=O)[O-] [BETONICINE] :
Completion: inactive

Prompt: Call for entry CCC1CCC2c3c([nH]c4ccc(C)cc34)C3C(=O)N(N(C)C)C(=O)C3C2C1 (stereo not drawn) :
Completion: inactive

Prompt: Call for entry `c1ccc(C/C(=N\Nc2nc3ccccc3o2)c2ccccn2)cc1` :
Completion: active

Prompt: Call for entry O=C(CC(=O)Nc1ccccc1Cl)NNC(Sc1ccccc1)c1cc(/N=N/c2ccc(Br)cc2)ccc1O (stereo not drawn) :
Completion: inactive

Prompt: Call for entry `S=C(N/N=C(/c1ccccc1)c1ccccn1)N1CCCCCC1` :
Completion: active

Prompt: Call for entry `COc1cc2c[n+](C)c3c4cc(OC)c(OC)cc4c(OC)cc3c2cc1OC` :
Completion: inactive

Prompt: Call for entry `CC[C@@]1(O)C(=O)OCc2c1cc1n(c2=O)Cc2c-1nc1ccccc1c2Cl` :
Completion: active

Prompt: Call for entry `c1ccc2c(c1)ccc1nc3ccccn3c12` :
Completion: inactive

Prompt: Call for entry `Cc1cccc(-c2cc(=O)c3cc(C)c(C)c(C(=O)O)c3o2)c1` :
Completion: inactive

Prompt: Call for entry `CN(C)c1ccc(C=C2C(=O)NC(=S)NC2=O)c2ccccc12` :
Completion: inactive

Prompt: Call for entry CC[C@@]1(O)C[C@H](OC2CC(N(C)C)C(O)C(C)O2)c2c(O)c3c(c(O)c2[C@H]1OC1CC(N(C)C)C(O)C(C)O1)C(=O)c1cccc(O)c1C3=O (stereo partly drawn) :
Completion: active

Prompt: Call for entry Nc1ncnc2c1nnn2C1C=CC(CP(=O)(O)O)C1 (stereo not drawn) :
Completion: inactive

* * *

test system: SNB-19; assay: NCI tumour cell line growth inhibition, 48 h
Activity calls are given as the source filed them. Rule as the data show it: active = GI50 up to about 1.1 µM and inactive = higher.
Returns: one label drawn from active, inactive

* C1=Cc2cccc3occ(c23)C=C1 | inactive
* COc1ccc(/C(Cl)=C(\C=O)c2ccc(Cl)cc2)cc1OC | inactive
* O/N=C1/C(=C/c2ccc(OCc3ccccc3)cc2)CCCC1C(NO)c1ccc(OCc2ccccc2)cc1 (stereo not given) | inactive
* COc1ccc(CC2C(=O)NC(C)C(=O)N(C)C3C(=O)N(C)C(Cc4ccc(O)c(c4)Oc4ccc(cc4)C3O)C(=O)NC(C)C(=O)NC(C)C(=O)N2C)cc1 (stereo not given) | active
* CN(Cc1cnc2c(N)nc(N)nc2n1)c1ccc(Cl)cc1 | inactive

Prompt: Call for entry Nc1nc(SCCC/C=C/B(O)O)nc2c1ncn2C1OC(CO)C(O)C1O (stereo not given) :
Completion: inactive

Prompt: Call for entry `c1ccc(-c2cnc3nc4ccccc4nc3n2)cc1` :
Completion: inactive

Prompt: Call for entry COc1ccc(C2C(C(=O)O)=C(CO)Oc3cc4c(cc32)OCO4)c(OC)c1 (stereo not given) :
Completion: inactive

Prompt: Call for entry `O=C(O)[C@H](NS(=O)(=O)c1ccc(F)cc1)c1ccccc1` :
Completion: inactive

Prompt: Call for entry `CC(C)[C@H](O)C(=O)N[C@H]1Cc2ccc3c(c2)[C@]24C5=C(N=C(O5)[C@H](C(C)C)NC1=O)c1nc(Cl)c(o1)-c1c(Cl)[nH]c5cccc(c15)-c1cccc2c1N[C@H]4O3` :
Completion: active

Prompt: Call for entry `CN(C)/C=N\c1c(Br)cc(Br)c2nonc12` :
Completion: inactive

Prompt: Call for entry `O=C1c2ccccc2-c2ccc(O)cc21` :
Completion: inactive

Prompt: Call for entry `Nc1ccc(-c2ncc3cc(-c4cccc(-c5cc6cnc(-c7ccc(N)cc7)nc6c6ccccc56)c4)c4ccccc4c3n2)cc1` :
Completion: inactive

Prompt: Call for entry `C=C1C(OC)=C(OC)C(=O)c2[nH]c3c(OC)cc([N+](=O)[O-])cc3c21` :
Completion: inactive

Prompt: Call for entry C/C(=N\Nc1ccccc1)C(CN(C)C)C(c1ccccc1)c1c(O)c2ccccc2oc1=O (stereo not given) :
Completion: inactive

Prompt: Call for entry CN(C)CC1(C)CC/C(=C\c2ccc(Cl)cc2)C1=O (stereo not given) :
Completion: inactive

Prompt: Call for entry OC1C2CCCCN2C[C@@H](O)[C@H]1O (stereo not given in full) :
Completion: inactive

Prompt: Call for entry `Cc1nc(N)nc(N)c1N1CCN(Cc2ccccc2)CC1` :
Completion: inactive

Prompt: Call for entry O=C(CC(=O)Nc1ccccc1Cl)NNC(Sc1ccccc1)c1cc(/N=N/c2ccc(Br)cc2)ccc1O (stereo not given) :
Completion: inactive

Prompt: Call for entry `N#Cc1nc(-c2ccccc2C(=O)O)oc1N` :
Completion: inactive

Prompt: Call for entry Cc1[nH]c2ccccc2c1C(=O)CC1(O)C(=O)Nc2c(Cl)cc(Cl)cc21 (stereo not given) :
Completion: inactive
